Exercise: for every item that follows, state its recorded pest or weed control at 100 ppm.
Test system: Septoria tritici—SEPTTR
assayName: Leaf Blotch of Wheat, in vivo whole plant, 24 Hour Protectant
setupConditions: Zymoseptoria tritici, 24 h, wheat plants sprayed at 100 ppm, inoculated after 24 hours; control of fungal infection vs untreated plants; read-out: SEPTTR in vivo 1 Day Protectant

Query string: # lookup: Septoria tritici—SEPTTR pest or weed control at 100 ppm, key = `CC(=O)Oc1cccnc1C(=O)Nc1ccc(Oc2cccc(C(F)(F)F)c2)cc1`
Result string: 25 to 74%

Query string: Look up Septoria tritici—SEPTTR data: pest or weed control at 100 ppm of `CC(C)C(=O)O[C@H]1[C@H](C)OC(=O)[C@@H](NC(=O)c2cn(C)nc2O)COC(=O)[C@@H]1Cc1ccccc1` , then report it.
Result string: 25 to 74%

Query string: Fetch value of pest or weed control at 100 ppm on Septoria tritici—SEPTTR for O=C(NC(Cc1ccccc1)c1ccccc1)c1cccnc1O (centres unmarked) .
Result string: < 25%

Query string: Give Septoria tritici—SEPTTR pest or weed control at 100 ppm for the following compound: `O=C(Nc1cccc(Oc2cccc(C(F)(F)F)c2)c1)c1nc(Br)ccc1O`
Result string: 25 to 74%

Query string: Report value: pest or weed control at 100 ppm, system: Septoria tritici—SEPTTR, compound: `O=C(NCc1ccccn1)c1nc(Br)ccc1O`
Result string: < 25%

Query string: Give pest or weed control at 100 ppm for `Cc1nc(O)c(C(=O)NC2CC(C)(C)CC(C)(C)C2)cc1Cl` tested on Septoria tritici—SEPTTR.
Result string: 25 to 74%

Query string: Jot down pest or weed control at 100 ppm (Septoria tritici—SEPTTR) of COc1ccnc(C(=O)NC(COC(=O)C(C)Cc2ccccc2)C(=O)OC(C)C)c1OC(C)=O (centres unmarked) .
Result string: < 25%

Query string: Provide pest or weed control at 100 ppm, recorded with Septoria tritici—SEPTTR, of COC(=O)C(COC(=O)COCc1ccccc1)NC(=O)c1nccc(OC)c1OC(C)=O (centres unmarked)
Result string: 25 to 74%

---

Would you kindly list inhibition at 25 ppm for each of these compounds?
System: Mycosphaerella graminicola (Septoria tritici—SEPTTR)
assayName: In vitro fungal growth inhibition, Mycosphaerella graminicola (SEPTTR)
Type: cell-based
setupConditions: Zymoseptoria tritici; 25 ppm in the growth medium; read-out: SEPTTR in vitro Growth Inhibition

Query string: Recall and state the measured inhibition at 25 ppm for COc1ccnc(C(=O)NC(COC(=O)CCc2ccccc2)C(=O)OC(C)COC(=O)C(C)C)c1OC(C)=O (centres unmarked) .
Result string: < 80%

Query string: In one line, give reported inhibition at 25 ppm of the entry `CC1(C)CC(NC(=O)c2cncnc2O)CC(C)(C)C1` .
Result string: > 80%

Query string: Identify inhibition at 25 ppm associated with the compound `CCOc1ccnc(C(=O)NC2CC(C)(C)CC(C)(C)C2)c1O`
Result string: < 80%

Query string: Find the measured inhibition at 25 ppm of COC(=O)C(COC(=O)COCc1ccccc1)NC(=O)c1nccc(OC)c1OC(C)=O (centres unmarked) and report it.
Result string: < 80%

Query string: Please give measured inhibition at 25 ppm of the following entry: COC(=O)C(COC(=O)C(COC(=O)C(C)C)Cc1ccccc1)NC(=O)c1nccc(OC)c1OC(C)=O (centres unmarked)
Result string: < 80%

Query string: Retrieve inhibition at 25 ppm measured for `CC(C)C(=O)O[C@H]1[C@H](C)OC(=O)[C@@H](NC(=O)c2nccnc2O)COC(=O)[C@@H]1Cc1ccccc1` and print it.
Result string: > 80%

Query string: Give the value of inhibition at 25 ppm reported for the following: `CC1(C)CC(NC(=O)c2nccc(Cl)c2O)CC(C)(C)C1`
Result string: < 80%

Query string: Tell me inhibition at 25 ppm reported for `COc1ccnc(C(=O)NC2CC(C)(C)C(=O)C(C)(C)C2)c1OC(C)=O`
Result string: < 80%
